Source: patent US12029739B2

molecular target: SHP2 (full length) (Homo sapiens, UniProt Q06124); construct: SHP2 (full length, diluted to 100 pM final concentration in reaction buffer, BPS bioscience, US); purchased BPS bioscience, US; assay: Phosphatase assay (PTPase assay) with DiFMUP substrate; type: biochemical; conditions: SHP2 activated with SHP2 activating peptide; DiFMUP 80 μM, 2 hours; fluorescence; read-out: IC50 (PTPase aS say)
pIC50: −log10 of the molar value.
# pIC50 listing for each entry below

C[C@@H]1OCC2(CCN(c3cnc(Sc4ccc5ncn(CCN(C)C)c(=O)c5c4Cl)cn3)CC2)[C@@H]1N : 7.00 to 8.52

**Q:** Endpoint output: pIC50 of `Cn1cnc2ccc(Sc3cnc(N4CCC(C)(CN)CC4)cn3)c(Cl)c2c1=O` . Value?
**A:** 7.00 to 8.52

###

target: SHP2 (full length) (Homo sapiens); construct: SHP2 (full length, diluted to 100 pM final concentration in reaction buffer, BPS bioscience, US); purchased BPS bioscience, US; assay: Phosphatase assay (PTPase assay) with DiFMUP substrate; format: biochemical; conditions: SHP2 activated with SHP2 activating peptide; DiFMUP 80 μM, 2 hours; fluorescence; read-out: IC50 (PTPase aS say)
pIC50: −log10 of the molar value.
property_label: pIC50

Sample records with pIC50:
CC(N)CN1CCN(c2nc(N)c(Sc3cccc(Cl)c3Cl)c(=O)n2C)CC1 (stereo not drawn) [Example 202] : < 7.00
C[C@@H]1OCC2(CCN(c3cnc(Sc4ccc5ncn(CC6CCCO6)c(=O)c5c4Cl)cn3)CC2)[C@@H]1N (stereo partly drawn) [Example 62] : > 8.52

**Q:** Endpoint output: pIC50 of C[C@@H]1OCC2(CCN(c3cnc(Sc4ccc5ncn(CC(C)(C)O)c(=O)c5c4Cl)cn3)CC2)[C@@H]1N [Example 81] . Value?
**A:** > 8.52

**Q:** Endpoint output: pIC50 of COCCn1cnc2ccc(Sc3cnc(N4CCC5(CC4)CO[C@@H](C)[C@H]5N)n4ccnc34)c(Cl)c2c1=O [Example 182] . Value?
**A:** 7.00 to 8.52

**Q:** Endpoint output: pIC50 of COCCn1cnc2ccc(Sc3cnc(N4CCC5(CC4)CO[C@@H](C)[C@H]5N)cn3)c(Cl)c2c1=O [Example 64] . Value?
**A:** > 8.52

###

Molecular target: SHP2 (full length) (Homo sapiens, UniProt Q06124)
Construct: SHP2 (full length, diluted to 100 pM final concentration in reaction buffer, BPS bioscience, US); purchased BPS bioscience, US
Sequence (Q06124 1-593): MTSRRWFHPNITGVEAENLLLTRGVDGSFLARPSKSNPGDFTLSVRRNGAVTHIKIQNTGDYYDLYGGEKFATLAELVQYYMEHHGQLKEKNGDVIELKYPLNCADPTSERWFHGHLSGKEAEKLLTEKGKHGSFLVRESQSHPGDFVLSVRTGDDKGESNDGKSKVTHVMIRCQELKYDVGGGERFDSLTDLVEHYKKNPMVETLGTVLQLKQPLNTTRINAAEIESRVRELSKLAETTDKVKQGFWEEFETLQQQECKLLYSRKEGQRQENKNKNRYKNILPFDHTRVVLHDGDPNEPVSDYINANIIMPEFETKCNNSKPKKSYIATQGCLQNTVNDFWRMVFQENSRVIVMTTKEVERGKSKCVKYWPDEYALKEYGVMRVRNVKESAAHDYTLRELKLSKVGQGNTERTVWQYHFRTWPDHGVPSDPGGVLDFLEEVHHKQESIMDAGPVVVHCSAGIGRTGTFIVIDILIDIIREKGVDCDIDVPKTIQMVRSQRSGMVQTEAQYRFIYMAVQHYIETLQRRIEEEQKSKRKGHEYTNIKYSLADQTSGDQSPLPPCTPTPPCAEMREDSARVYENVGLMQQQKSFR
Assay: Phosphatase assay (PTPase assay) with DiFMUP substrate
Type: biochemical
Conditions: SHP2 activated with SHP2 activating peptide; DiFMUP 80 μM, 2 hours; fluorescence; read-out: IC50 (PTPase aS say)
pIC50: −log10 of the molar value.
property_label: pIC50

C[C@@H]1OCC2(CCN(c3cnc(Sc4ccc5ncn(CC6CNC(=O)O6)c(=O)c5c4Cl)cn3)CC2)[C@@H]1N (stereo partly drawn) : > 8.52
COCCn1cnc2ccc(Sc3cnc(N4CCC5(CC4)Cc4ncsc4[C@H]5N)c(C(N)=O)n3)c(Cl)c2c1=O : > 8.52

Continue with the molecule presented below.
**Q:** Endpoint output: pIC50 of `CC1(N)CCN(c2cnc(Sc3ccc4ncn(-c5ccccc5)c(=O)c4c3Cl)cn2)CC1` . Value?
**A:** 7.00 to 8.52

###

test system: phospho-ERK in MIA PaCa2 or H358 cells; experiment: Phospho-ERK assay (AlphaLisa); assay type: cell-based; conditions: 1.5 h, MIA PaCa2 or H358 cells, compound incubated 1.5 hours; read-out: IC50 (p-ERK)
pIC50: −log10 of the molar value.
property_label: pIC50

**Q:** Endpoint output: pIC50 of `Cc1nc2ccc(Sc3cnc(N4CCC(C)(CN)CC4)cn3)c(Cl)c2c(=O)n1Cc1ccccc1` . Value?
**A:** 5.82 to 7.35

**Q:** Endpoint output: pIC50 of `C[C@@H]1OCC2(CCN(c3cnc(Sc4ccc5ncn(Cc6ccncn6)c(=O)c5c4Cl)cn3)CC2)[C@@H]1N` . Value?
**A:** > 7.35

**Q:** Endpoint output: pIC50 of `C[C@@H]1OCC2(CCN(c3cnc(Sc4ccc5ncn(CCN(C)S(C)(=O)=O)c(=O)c5c4Cl)cn3)CC2)[C@@H]1N` . Value?
**A:** > 7.35

**Q:** Endpoint output: pIC50 of `C[C@@H]1OCC2(CCN(c3cnc(Sc4ccc5ncn(CC6=CCOCC6)c(=O)c5c4Cl)cn3)CC2)[C@@H]1N` . Value?
**A:** 5.82 to 7.35

**Q:** Endpoint output: pIC50 of `COCCn1cnc2ccc(Sc3cnc(N4CCC5(CC4)CO[C@@H](C)[C@H]5N)cn3)c(Cl)c2c1=O` . Value?
**A:** > 7.35

**Q:** Endpoint output: pIC50 of `C[C@@H]1OCC2(CCN(c3cnc(Sc4ccc5ncn(-c6ccccc6)c(=O)c5c4Cl)cn3)CC2)[C@@H]1N` . Value?
**A:** 5.82 to 7.35

###

target: SHP2 (full length) (Homo sapiens); construct: SHP2 (full length, diluted to 100 pM final concentration in reaction buffer, BPS bioscience, US); purchased BPS bioscience, US; assay: Phosphatase assay (PTPase assay) with DiFMUP substrate; assay type: biochemical; details: SHP2 activated with SHP2 activating peptide; DiFMUP 80 μM, 2 hours; fluorescence; read-out: IC50 (PTPase aS say)
pIC50: −log10 of the molar value.
# pIC50 listing for each entry below

Sample records with pIC50:
COCCn1cnc2ccc(Sc3cnc(N4CCC5(CC4)Cc4ncccc4[C@H]5N)c(CO)n3)c(Cl)c2c1=O : > 8.52
C[C@@H]1OCC2(CCN(c3cnc(Sc4ccc5ncn(CC6CCCN6C)c(=O)c5c4Cl)cn3)CC2)[C@@H]1N (some centres unmarked) : 7.00 to 8.52
C[C@@H]1OCC2(CCN(c3cnc(Sc4ccc5nc(Cc6cccnc6)[nH]c5c4Cl)cn3)CC2)[C@@H]1N : 7.00 to 8.52
C[C@@H]1OCC2(CCN(c3cnc(Sc4cccc(S(N)(=O)=O)c4Cl)cn3)CC2)[C@@H]1N : > 8.52
C[C@@H]1OCC2(CCN(c3cnc(Sc4ccc5c(nc(OC6CCOC6)n5C)c4Cl)cn3)CC2)[C@@H]1N (some centres unmarked) : > 8.52

**Q:** Endpoint output: pIC50 of `Cn1c(N2CCN(CCN)CC2)nc(N)c(-c2cccc(Cl)c2Cl)c1=O` . Value?
**A:** < 7.00

**Q:** Endpoint output: pIC50 of `Cn1c(N2CCCN(CCCN)CC2)nc(N)c(Sc2cccc(Cl)c2Cl)c1=O` . Value?
**A:** < 7.00

**Q:** Endpoint output: pIC50 of `COCCn1cnc2ccc(Sc3nc(C(C)=O)c(N4CCC5(CC4)CO[C@@H](C)[C@H]5N)nc3N)c(Cl)c2c1=O` . Value?
**A:** 7.00 to 8.52

**Q:** Endpoint output: pIC50 of `N[C@H]1c2scnc2CC12CCN(c1cnc(Sc3ccc4ncn(CC5CCOCC5)c(=O)c4c3Cl)cn1)CC2` . Value?
**A:** 7.00 to 8.52

**Q:** Endpoint output: pIC50 of `C[C@@H]1OCC2(CCN(c3cnc(Sc4ccc5ncn(CCN(C)S(C)(=O)=O)c(=O)c5c4Cl)cn3)CC2)[C@@H]1N` . Value?
**A:** > 8.52

**Q:** Endpoint output: pIC50 of `COCCn1cnc2ccc(Sc3cnc(N4CCC5(CC4)Cc4ccc(O)cc4[C@H]5N)cn3)c(Cl)c2c1=O` . Value?
**A:** > 8.52

**Q:** Endpoint output: pIC50 of `COCCn1cnc2ccc(Sc3cnc(N4CCC5(CC4)Cc4scnc4[C@@H]5N)cn3)c(Cl)c2c1=O` . Value?
**A:** > 8.52
